Biological target: T1, EcoNrdR (Escherichia coli, UniProt P0A8D0 1-149)
T1 sequence: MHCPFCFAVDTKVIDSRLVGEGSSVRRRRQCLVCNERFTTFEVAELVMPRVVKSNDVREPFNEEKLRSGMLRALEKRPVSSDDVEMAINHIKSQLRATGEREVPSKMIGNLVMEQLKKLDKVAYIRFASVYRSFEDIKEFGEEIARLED
Assay: MST; dATP + ATP; MST, temperature not stated. Lmo: 25 mM Bis-Tris propane pH 6.5, 100 mM KCl, 5 mM MgCl2, 5% glycerol, 1 mM DTT, 0.05% Tween 20, one nucleotide 1 mM or two at 0.5 mM each; Spn: 25 mM HEPES pH 7.2, 250 mM NaCl, 2.5 mM MgCl2, 15% glycerol, 2 mM DTT, 0.1 mg/mL BSA, 0.05% Tween 20, 0.5 mM ATP and/or dATP; Eco: 25 mM Tris pH 8.5, 100 mM NaCl, 7 mM MgCl2, 1 mM DTT, 0.025% Tween 20, 1 mM ATP + 1 mM dATP; …
Conditions: protein: recombinant; chain copies: 4; label: 5'-Cy5 sense; blunt
READOUT KIND: Kd (nM)

[[record]]
binder = "Synt 16 bp spacer (dsDNA) DNA 1: GCCAAACACAACATCTAGTGGTTGGATAGCGTGAAGCACACAACATCTAGTGGACCTC DNA 2: GAGGTCCACTAGATGTTGTGTGCTTCACGCTATCCAACCACTAGATGTTGTGTTTGGC"
unit_descriptor = "nM"
quantitative_readout = 82

[[record]]
binder = "Synt 26 bp spacer (dsDNA) DNA 1: GCCAAACACAACATCTAGTGGTTGGATAGCGTGAAGTTCCACCTAGCACACAACATCTAGTGGACCTC DNA 2: GAGGTCCACTAGATGTTGTGTGCTAGGTGGAACTTCACGCTATCCAACCACTAGATGTTGTGTTTGGC"
unit_descriptor = "nM"
quantitative_readout = 24

[[record]]
binder = "Synt 13 bp spacer (dsDNA) DNA 1: GCCAAACACAACATCTAGTGGTTGGATAGTGAGCACACAACATCTAGTGGACCTC DNA 2: GAGGTCCACTAGATGTTGTGTGCTCACTATCCAACCACTAGATGTTGTGTTTGGC"
unit_descriptor = "nM"
quantitative_readout = 117

[[record]]
binder = "Synt 17 bp spacer (dsDNA) DNA 1: GCCAAACACAACATCTAGTGGTTGGATAGCGTGAAGGCACACAACATCTAGTGGACCTC DNA 2: GAGGTCCACTAGATGTTGTGTGCCTTCACGCTATCCAACCACTAGATGTTGTGTTTGGC"
unit_descriptor = "nM"
quantitative_readout = 45

